Where these numbers come from: PubChem BioAssay (NCATS)

- TEST_SYSTEM: Voltage-gated inwardly rectifying potassium channel KCNH2 (Homo sapiens) (UniProt Q12809)
- Sequence (Q12809 whole entry, looked up): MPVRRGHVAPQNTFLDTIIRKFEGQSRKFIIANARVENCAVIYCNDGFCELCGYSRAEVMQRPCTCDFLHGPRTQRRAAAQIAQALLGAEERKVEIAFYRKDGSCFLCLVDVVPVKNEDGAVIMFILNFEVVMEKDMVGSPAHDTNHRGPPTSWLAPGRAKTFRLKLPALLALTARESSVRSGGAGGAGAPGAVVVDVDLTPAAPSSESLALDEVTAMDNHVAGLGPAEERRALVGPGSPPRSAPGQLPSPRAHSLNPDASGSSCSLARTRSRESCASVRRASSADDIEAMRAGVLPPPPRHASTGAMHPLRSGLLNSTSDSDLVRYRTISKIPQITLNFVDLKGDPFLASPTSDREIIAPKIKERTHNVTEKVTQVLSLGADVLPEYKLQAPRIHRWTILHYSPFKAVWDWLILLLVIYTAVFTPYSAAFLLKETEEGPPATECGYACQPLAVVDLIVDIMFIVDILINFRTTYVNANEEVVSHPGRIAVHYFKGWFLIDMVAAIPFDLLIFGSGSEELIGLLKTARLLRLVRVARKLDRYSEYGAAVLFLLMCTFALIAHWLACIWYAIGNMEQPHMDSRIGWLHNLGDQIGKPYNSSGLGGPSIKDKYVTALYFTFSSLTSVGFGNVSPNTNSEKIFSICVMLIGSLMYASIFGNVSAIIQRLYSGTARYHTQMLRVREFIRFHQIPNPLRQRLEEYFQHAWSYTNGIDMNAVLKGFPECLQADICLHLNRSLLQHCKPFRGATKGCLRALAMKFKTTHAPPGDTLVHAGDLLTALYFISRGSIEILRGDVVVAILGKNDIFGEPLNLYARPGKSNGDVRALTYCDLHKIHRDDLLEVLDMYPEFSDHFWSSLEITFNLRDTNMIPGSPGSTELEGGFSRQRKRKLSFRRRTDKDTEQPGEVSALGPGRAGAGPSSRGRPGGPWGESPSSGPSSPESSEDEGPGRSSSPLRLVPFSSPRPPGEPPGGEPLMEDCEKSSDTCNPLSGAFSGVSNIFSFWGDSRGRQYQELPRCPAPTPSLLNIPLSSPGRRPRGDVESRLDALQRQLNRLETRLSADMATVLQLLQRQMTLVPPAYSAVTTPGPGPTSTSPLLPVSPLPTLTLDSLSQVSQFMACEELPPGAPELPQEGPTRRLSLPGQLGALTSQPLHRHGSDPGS
- EXPERIMENTAL_PROTOCOL: qHTS Assay for Small Molecule Inhibitors of the Human hERG Channel Activity (AID 588834);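 note: U2OS cells transduced with hERG by BacMam; top concentration of the series differs between compounds; lower thallium flux fluorescence means stronger hERG block; nearly all actives have a fitted effect of over 50% in size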
- CONDITIONS: U2OS BacMam hERG, FluxOR thallium flux fluorescence; series mostly up to 46.1 µM
Records with an inconclusive call do not appear. Activity calls are given as the source filed them. Calls come from the whole dose curve; as a rule, active = well fitted inhibition curve with a large enough effect; inconclusive = small, poorly fitted or top-dose-only effect; inactive = flat fitted curve, though single readings scatter.
MEASUREMENT_KIND: outcome

Some solved cases for reference:
>>> result("O=C(O)c1cc(O)c2c(c1)[O][Bi][O]2")
"inactive"
>>> result("CO[C@H]1C=CO[C@@]2(C)Oc3c(C)c(O)c4c(O)c(c5c(nc6cc(C)ccn65)c4c3C2=O)NC(=O)/C(C)=C\\C=C[C@H](C)[C@H](O)[C@@H](C)[C@@H](O)[C@@H](C)[C@H](OC(C)=O)[C@@H]1C")
"inactive"
>>> result("CC1=C2[C@@H]([C@H](C)CC[C@H]2/C=C(\\C)C(=O)O)[C@H](O)C1")
"inactive"
>>> result("CCOC(C)=O")
"inactive"
>>> result("CC[N+](C)(C)Cc1ccccc1Br")
"inactive"
>>> result("C/C1=C2N=C(/C=C3N=C(/C(C)=C4\\[N-][C@@](C)([C@@H]5N=C1[C@](C)(CCC(=O)NCC(C)OP(=O)(O)O[C@H]1[C@@H](O)[C@@H](n6cnc7cc(C)c(C)cc76)O[C@@H]1CO)[C@H]5CC(N)=O)[C@@](C)(CC(N)=O)[C@@H]4CCC(N)=O)[C@@](C)(CC(N)=O)[C@@H]\\3CCC(N)=O)C(C)(C)[C@@H]/2CCC(N)=O.CC(=O)O.[Co] (stereo partly drawn)")
"inactive"
>>> result("CO[C@@H]1[C@@H](O[C@@H]2O[C@H](C)[C@@H](O[C@H]3C[C@@](C)(O)[C@@H](O)[C@H](C)O3)[C@H](N(C)C)[C@H]2O)[C@@H](CC=O)C[C@@H](C)[C@@H](O[C@@H]2CC[C@H](N(C)C)[C@@H](C)O2)/C=C/C=C/C[C@@H](C)OC(=O)C[C@H]1O")
"inactive"

Proceeding to the next compound to report its outcome.
query: Entry under review: CC(=O)N(CC(C)C(=O)O)c1c(I)cc(I)c(N)c1I (stereo not drawn) . Reported outcome?
result: inactive
